biological target: Sphingosine 1-phosphate receptor 1 (Homo sapiens) (UniProt P21453); assay: S1P1 receptor agonists, late-stage follow-up, selectivity assay for S1P3 agonist project, cell-based, fluorescence, dose response, set 3 (AID 540368); details: run 3
Sequence (P21453 whole entry, looked up): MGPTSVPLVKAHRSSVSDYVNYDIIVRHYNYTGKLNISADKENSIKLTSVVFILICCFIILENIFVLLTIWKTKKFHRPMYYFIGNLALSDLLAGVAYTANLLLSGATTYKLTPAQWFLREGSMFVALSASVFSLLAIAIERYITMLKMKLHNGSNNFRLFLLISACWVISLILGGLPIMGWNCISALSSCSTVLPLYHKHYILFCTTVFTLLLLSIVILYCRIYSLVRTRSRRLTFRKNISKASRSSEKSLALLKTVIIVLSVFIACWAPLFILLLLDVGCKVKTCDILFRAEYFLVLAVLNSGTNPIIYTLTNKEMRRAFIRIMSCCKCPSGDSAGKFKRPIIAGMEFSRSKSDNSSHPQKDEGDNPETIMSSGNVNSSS
Activity calls are given as the source filed them. No rule for the calls is given here.
recorded metric: EC50

Inquiry: Using the record for O=C(c1cc(C2CC2)on1)N(C1CCCCC1)C1CCOCC1 , report its EC50.
Reply text: > 50 µM (inactive)

Inquiry: Using the record for CC(C)c1cc(C(=O)N(C2CCCCC2)C2CCCCC2)no1 , report its EC50.
Reply text: inactive

Inquiry: Using the record for Cc1cc(C(=O)N(C2CCCCC2)C2CCCCC2)no1 , report its EC50.
Reply text: > 50 µM (inactive)

Inquiry: Using the record for CC1CCCCC1N(C(=O)c1cc(C2CC2)on1)C1CCCCC1C (stereo unspecified) , report its EC50.
Reply text: > 50 µM (inactive)

Inquiry: Using the record for O=C(c1cc(C2CC2)on1)N(C1CCCCCC1)C1CCCC1 , report its EC50.
Reply text: inactive

Further cases:
Inquiry: Using the record for O=C(c1cc(C2CC2)on1)N(Cc1ccccc1)c1ccccn1 , report its EC50.
Reply text: > 50 µM (inactive)

* * *

target: Sphingosine 1-phosphate receptor 1 (Homo sapiens); assay: S1P1 receptor agonists, late-stage follow-up, selectivity assay for S1P3 agonist project, cell-based, fluorescence, dose response, set 3 (AID 540368); conditions: run 3
Calls of active or inactive are those of the source. No rule for the calls is given here.
recorded metric: EC50

# count of solved cases: 4
Inquiry: Using the record for CCCc1cc(C(=O)NC2CCCCC2)no1 , report its EC50.
Reply text: > 50 µM (inactive)

Inquiry: Using the record for COc1ccc(-c2cc(C(=O)N(C3CCCCC3)C3CCCCC3)no2)cc1OC , report its EC50.
Reply text: > 50 µM (inactive)

Inquiry: Using the record for COc1ccc(-c2cc(C(=O)N(C3CCCCC3)C3CCCCC3)no2)cc1 , report its EC50.
Reply text: 0.529 µM

Inquiry: Using the record for O=C(c1ccc(C2CC2)o1)N(C1CCCCC1)C1CCCCC1 , report its EC50.
Reply text: inactive

Let us move to another entry and its EC50.
Inquiry: Using the record for CCCc1cc(C(=O)N(C2CCCCC2)C2CCCC2)no1 , report its EC50.
Reply text: inactive

Data provenance: PubChem BioAssay AID540368
